Values compiled from the AptaBench aptamer set (doi:10.1093/nar/gkaf219).

Test system: DNA aptamer or structured DNA GGGACGACTAGTGCCTTCGCGCTGTGCGGGAATCCGGTTCTGTCGTCCC
details: 10 mM Tris-HCl, pH 7.4
outcome_measure: pKd
For clarity, pKd is expressed as the negative log10 of concentration in mol/L.

Given item CN[C@@H](C)Cc1ccccc1 , the value recorded as its pKd is 5.12

###

Tested on: DNA aptamer or structured DNA GGGACGACGGCAGGGTGTTGGTGGGGTAGGTCAATGTAGTCGTCCC
details: 10 mM Tris-HCl, pH 7.4
outcome_measure: binding call; further: call rule not given here

CCCCCc1cc(O)c2c(c1)OC(C)(C)c1ccc(C)cc1-2 :: binds
C[C@]12CC[C@H](OS(=O)(=O)O)CC1=CC[C@@H]1[C@@H]2CC[C@]2(C)C(=O)CC[C@@H]12 :: binds
CC(=O)Oc1ccc2c3c1O[C@H]1[C@@H](OC(C)=O)C=C[C@H]4[C@@H](C2)N(C)CC[C@@]341 :: no binding
CNC(C)Cc1ccc2c(c1)OCO2 (stereo unspecified) :: no binding
COc1ccc2c3c1O[C@H]1C(=O)CC[C@@]4(O)[C@@H](C2)N(C)CC[C@]314 :: no binding

Shift focus to the following entry.
Field binding call (system: DNA aptamer or structured DNA GGGACGACGGCAGGGTGTTGGTGGGGTAGGTCAATGTAGTCGTCCC) for entry N[C@@H](Cc1c[nH]c2ccccc12)C(=O)O = no binding
